B1: Pre-mRNA-processing factor 40 homolog B, residues 274 to 332; numbered along this chain, Q6NWY9 (parent)
chain: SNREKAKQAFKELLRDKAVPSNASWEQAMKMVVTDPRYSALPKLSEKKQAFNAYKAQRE

# Variants of: B1
# assaySummary: abundance fitness (aPCA) (normalised: wild type 0, dead -1); higher = more abundant; growth selection in yeast, the domain comes from the species named
# conditionContext: Homo sapiens
Class field: derived from abundance fitness; ranges LOW: < -0.5; MID: ≥ -0.5 and < -0.09; HIGH: ≥ -0.09

• K30E = HIGH

Hello team, could you let me know which band the following variant falls into: R3E HIGH

Continue with K47N LOW

// repeat for R15G and report MID

Now the variant K17Y MID

Field entry: E4Y MID
